Test system: human hepatocyte
assay procedure: In vitro human hepatocyte stability assay
Type: in vitro ADME
condition parameters: human hepatocytes, 4.0 hr
measurement name: percentage of initial concentration
Kindly write the number and append the unit.

Below: 3 molecules and their reported percentage of initial concentration.
GET /value?item= [2H]c1nc([2H])n(CC(=O)[C@H]2CC[C@H]3[C@@H]4CC[C@H]5C[C@@](O)(COC)CC[C@]5(C)[C@H]4CC[C@]23C)c1[2H] [Example 2] &field=percentage of initial concentration returns 92%

Noted for COC[C@@]1(O)CC[C@@]2(C)[C@@H](CC[C@@H]3[C@@H]2CC[C@]2(C)[C@@H](C(=O)Cn4ccnc4)CC[C@@H]32)C1 [Example 1] : its percentage of initial concentration reads 78%

For reference, reported percentage of initial concentration for [2H]c1nc([2H])n(C([2H])C(=O)[C@@]2([2H])CC[C@H]3[C@@H]4CC[C@H]5C[C@@](O)(COC([2H])([2H])[2H])CC[C@]5(C)[C@H]4CC[C@@]32C)c1[2H] (stereo partly shown) [Example 6] stands at 45%

// below: percentage of initial concentration requested for another molecule
Lab book: percentage of initial concentration of [2H]C(C(=O)[C@@]1([2H])CC[C@H]2[C@@H]3CC[C@H]4C[C@@](O)(COC([2H])([2H])[2H])CC[C@]4(C)[C@H]3CC[C@@]21C)n1ccnc1 (stereo partly shown) [Example 5] noted as 52%

----------
assay procedure: In vivo mouse pharmacokinetics, paired oral co-dosing, plasma and brain
Parameters: species or system mice
condition parameters: plasma, 10 mg/kg po co-dosed, 1 hr, read-out: Plasma concentration
Protocol: In a first study, the compounds of Examples 2 to 6 are compared to the Compound of Formula A (Example 1) using standard procedures in mice. In each test, two compounds are co-dosed in a single animal and the relative pharmacokinetics in plasma and brain is determined. […] After single dose oral administration of the test compounds together, plasma and brain levels are measured at 0.25, 0.5, 1, 2, 4, and 6 hours post-dosing. […]
measurement name: concentration at 1 hr (ng/mL)
Answers are plain numbers, in ng/mL.

# annotated cases, reported concentration at 1 hr shown
The measured concentration at 1 hr associated with `[2H]c1nc([2H])n(CC(=O)[C@H]2CC[C@H]3[C@@H]4CC[C@H]5C[C@@](O)(COC([2H])([2H])[2H])CC[C@]5(C)[C@H]4CC[C@]23C)c1[2H]` reads 2520

GET /value?item= [2H]c1nc([2H])n(C([2H])C(=O)[C@@]2([2H])CC[C@H]3[C@@H]4CC[C@H]5C[C@@](O)(COC([2H])([2H])[2H])CC[C@]5(C)[C@H]4CC[C@@]32C)c1[2H] (stereo partly drawn) &field=concentration at 1 hr returns 2120

response.value for [2H]C(C(=O)[C@@]1([2H])CC[C@H]2[C@@H]3CC[C@H]4C[C@@](O)(COC([2H])([2H])[2H])CC[C@]4(C)[C@H]3CC[C@@]21C)n1ccnc1 (stereo partly drawn) (field: concentration at 1 hr) = 2300

Item: `[2H]C([2H])([2H])OC[C@@]1(O)CC[C@@]2(C)[C@@H](CC[C@@H]3[C@@H]2CC[C@]2(C)[C@@H](C(=O)Cn4ccnc4)CC[C@@H]32)C1` | concentration at 1 hr: 2420

Lab note: `[2H]c1nc([2H])n(CC(=O)[C@H]2CC[C@H]3[C@@H]4CC[C@H]5C[C@@](O)(COC)CC[C@]5(C)[C@H]4CC[C@]23C)c1[2H]` gave concentration at 1 hr of 2550

Next:
Record `COC[C@@]1(O)CC[C@@]2(C)[C@@H](CC[C@@H]3[C@@H]2CC[C@]2(C)[C@@H](C(=O)Cn4ccnc4)CC[C@@H]32)C1` , field concentration at 1 hr: 2580

----------
Kindly supply the reported concentration at 2 hr values for the records listed here.
assay procedure: In vivo mouse pharmacokinetics, paired oral co-dosing, plasma and brain
Design: species or system mice
condition parameters: plasma, 10 mg/kg po co-dosed, 2 hr, read-out: Plasma concentration

In plain terms, COC[C@@]1(O)CC[C@@]2(C)[C@@H](CC[C@@H]3[C@@H]2CC[C@]2(C)[C@@H](C(=O)Cn4ccnc4)CC[C@@H]32)C1 [Example 1] has a documented concentration at 2 hr of 2100 ng/mL

concentration at 2 hr in this record for [2H]c1nc([2H])n(C([2H])C(=O)[C@@]2([2H])CC[C@H]3[C@@H]4CC[C@H]5C[C@@](O)(COC([2H])([2H])[2H])CC[C@]5(C)[C@H]4CC[C@@]32C)c1[2H] (stereo partly drawn) [Example 6] : 1650 ng/mL

Measured concentration at 2 hr of [2H]c1nc([2H])n(CC(=O)[C@H]2CC[C@H]3[C@@H]4CC[C@H]5C[C@@](O)(COC([2H])([2H])[2H])CC[C@]5(C)[C@H]4CC[C@]23C)c1[2H] [Example 4] : 1950 ng/mL

# batch size: 3; output concentration at 2 hr per entry
1. [2H]C([2H])([2H])OC[C@@]1(O)CC[C@@]2(C)[C@@H](CC[C@@H]3[C@@H]2CC[C@]2(C)[C@@H](C(=O)Cn4ccnc4)CC[C@@H]32)C1 [Example 3]
2. [2H]c1nc([2H])n(CC(=O)[C@H]2CC[C@H]3[C@@H]4CC[C@H]5C[C@@](O)(COC)CC[C@]5(C)[C@H]4CC[C@]23C)c1[2H] [Example 2]
3. [2H]C(C(=O)[C@@]1([2H])CC[C@H]2[C@@H]3CC[C@H]4C[C@@](O)(COC([2H])([2H])[2H])CC[C@]4(C)[C@H]3CC[C@@]21C)n1ccnc1 (stereo partly drawn) [Example 5]

Result:
1: 2020 ng/mL; 2: 2120 ng/mL; 3: 1770 ng/mL

----------
assay procedure: In vivo mouse pharmacokinetics, paired oral co-dosing, plasma and brain
Parameters: species or system mice
condition parameters: plasma, 10 mg/kg po co-dosed, 0.5 hr, read-out: Plasma concentration
measurement name: concentration at 0.5 hr (ng/mL)
Numbers only, in ng/mL.

Entry under test: [2H]c1nc([2H])n(CC(=O)[C@H]2CC[C@H]3[C@@H]4CC[C@H]5C[C@@](O)(COC)CC[C@]5(C)[C@H]4CC[C@]23C)c1[2H] [Example 2] . Its concentration at 0.5 hr was 1740

Record summary for [2H]C([2H])([2H])OC[C@@]1(O)CC[C@@]2(C)[C@@H](CC[C@@H]3[C@@H]2CC[C@]2(C)[C@@H](C(=O)Cn4ccnc4)CC[C@@H]32)C1 [Example 3] : reported concentration at 0.5 hr = 1570

The value of concentration at 0.5 hr measured for the molecule [2H]C(C(=O)[C@@]1([2H])CC[C@H]2[C@@H]3CC[C@H]4C[C@@](O)(COC([2H])([2H])[2H])CC[C@]4(C)[C@H]3CC[C@@]21C)n1ccnc1 (stereo partly drawn) [Example 5] turned out to be 1960

Working through the 3 molecules below one at a time, give concentration at 0.5 hr for each.
1. [2H]c1nc([2H])n(CC(=O)[C@H]2CC[C@H]3[C@@H]4CC[C@H]5C[C@@](O)(COC([2H])([2H])[2H])CC[C@]5(C)[C@H]4CC[C@]23C)c1[2H] [Example 4]
2. [2H]c1nc([2H])n(C([2H])C(=O)[C@@]2([2H])CC[C@H]3[C@@H]4CC[C@H]5C[C@@](O)(COC([2H])([2H])[2H])CC[C@]5(C)[C@H]4CC[C@@]32C)c1[2H] (stereo partly drawn) [Example 6]
3. COC[C@@]1(O)CC[C@@]2(C)[C@@H](CC[C@@H]3[C@@H]2CC[C@]2(C)[C@@H](C(=O)Cn4ccnc4)CC[C@@H]32)C1 [Example 1]

Result:
1490
1850
1820

----------
Provide the reported concentration at 1 hr of each item.
assay procedure: In vivo mouse pharmacokinetics, paired oral co-dosing, plasma and brain
Set-up: species or system mice
condition parameters: brain, 10 mg/kg po co-dosed, 1 hr, read-out: Brain concentration
Give bare numbers, in ng/g.

Consider the following illustrative entries.
Recorded concentration at 1 hr (molecule [2H]C([2H])([2H])OC[C@@]1(O)CC[C@@]2(C)[C@@H](CC[C@@H]3[C@@H]2CC[C@]2(C)[C@@H](C(=O)Cn4ccnc4)CC[C@@H]32)C1 [Example 3] ): 2620

[2H]c1nc([2H])n(CC(=O)[C@H]2CC[C@H]3[C@@H]4CC[C@H]5C[C@@](O)(COC([2H])([2H])[2H])CC[C@]5(C)[C@H]4CC[C@]23C)c1[2H] [Example 4] yielded concentration at 1 hr of 6530

Entry [2H]C(C(=O)[C@@]1([2H])CC[C@H]2[C@@H]3CC[C@H]4C[C@@](O)(COC([2H])([2H])[2H])CC[C@]4(C)[C@H]3CC[C@@]21C)n1ccnc1 (stereo partly drawn) [Example 5] , concentration at 1 hr reported as 5700

For every listed record, write down its concentration at 1 hr.
1. [2H]c1nc([2H])n(CC(=O)[C@H]2CC[C@H]3[C@@H]4CC[C@H]5C[C@@](O)(COC)CC[C@]5(C)[C@H]4CC[C@]23C)c1[2H] [Example 2]
2. [2H]c1nc([2H])n(C([2H])C(=O)[C@@]2([2H])CC[C@H]3[C@@H]4CC[C@H]5C[C@@](O)(COC([2H])([2H])[2H])CC[C@]5(C)[C@H]4CC[C@@]32C)c1[2H] (stereo partly drawn) [Example 6]
3. COC[C@@]1(O)CC[C@@]2(C)[C@@H](CC[C@@H]3[C@@H]2CC[C@]2(C)[C@@H](C(=O)Cn4ccnc4)CC[C@@H]32)C1 [Example 1]

Result:
1. 7600
2. 5300
3. 2880
